system: F508delCFTR in primary hBE cells with F508del/F508del CFTR mutation (Homo sapiens, UniProt P13569, DEL508-508)
Construct: cells isolated from CF patients with the homozygous mutation; endogenous in cells
Sequence (P13569 with tags, fused parts or gaps DEL508-508): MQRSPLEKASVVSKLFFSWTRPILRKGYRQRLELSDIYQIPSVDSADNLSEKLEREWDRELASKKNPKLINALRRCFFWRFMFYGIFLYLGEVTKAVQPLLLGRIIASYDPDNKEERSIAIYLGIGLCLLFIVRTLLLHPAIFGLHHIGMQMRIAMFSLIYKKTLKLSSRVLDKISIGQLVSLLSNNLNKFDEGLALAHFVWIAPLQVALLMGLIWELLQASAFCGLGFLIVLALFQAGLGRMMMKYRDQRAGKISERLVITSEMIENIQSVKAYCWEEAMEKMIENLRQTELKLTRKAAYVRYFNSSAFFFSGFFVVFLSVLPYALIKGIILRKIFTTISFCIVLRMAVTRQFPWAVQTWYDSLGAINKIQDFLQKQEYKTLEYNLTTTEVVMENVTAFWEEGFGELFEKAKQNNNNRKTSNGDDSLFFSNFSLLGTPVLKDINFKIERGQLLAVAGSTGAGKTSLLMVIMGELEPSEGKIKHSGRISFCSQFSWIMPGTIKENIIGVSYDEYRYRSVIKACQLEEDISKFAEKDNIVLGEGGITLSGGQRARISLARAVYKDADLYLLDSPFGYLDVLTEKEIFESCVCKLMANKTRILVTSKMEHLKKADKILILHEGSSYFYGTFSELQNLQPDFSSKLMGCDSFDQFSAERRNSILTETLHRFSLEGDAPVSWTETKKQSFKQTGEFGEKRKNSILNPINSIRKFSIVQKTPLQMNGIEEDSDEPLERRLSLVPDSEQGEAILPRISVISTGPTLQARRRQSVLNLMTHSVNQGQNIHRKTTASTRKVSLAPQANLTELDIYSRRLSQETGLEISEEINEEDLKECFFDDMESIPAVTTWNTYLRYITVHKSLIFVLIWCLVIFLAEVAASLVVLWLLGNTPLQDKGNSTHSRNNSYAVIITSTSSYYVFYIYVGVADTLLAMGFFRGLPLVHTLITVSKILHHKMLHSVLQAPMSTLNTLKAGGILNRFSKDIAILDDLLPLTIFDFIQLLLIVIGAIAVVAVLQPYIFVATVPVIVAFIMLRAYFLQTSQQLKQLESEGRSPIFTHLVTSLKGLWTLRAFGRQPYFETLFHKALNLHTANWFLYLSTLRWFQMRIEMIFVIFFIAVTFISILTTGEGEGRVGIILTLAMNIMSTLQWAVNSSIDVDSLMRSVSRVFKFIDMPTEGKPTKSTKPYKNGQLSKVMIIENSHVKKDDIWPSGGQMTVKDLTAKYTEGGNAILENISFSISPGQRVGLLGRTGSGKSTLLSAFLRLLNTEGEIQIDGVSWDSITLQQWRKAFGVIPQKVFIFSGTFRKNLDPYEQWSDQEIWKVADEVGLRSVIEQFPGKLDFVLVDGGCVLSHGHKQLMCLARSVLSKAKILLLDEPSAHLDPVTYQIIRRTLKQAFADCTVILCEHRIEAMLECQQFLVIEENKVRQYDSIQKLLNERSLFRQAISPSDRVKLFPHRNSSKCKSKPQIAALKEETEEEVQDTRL
assay-remarks: Transepithelial Clamp Circuit on Human Bronchial Epithelial Cells Conductance Assay (hBE-TECC)
applied-conditions: primary hBE cells F508del/F508del, 18-24 hours at 37° C., equivalent short circuit current, 6 concentrations
observable: pEC50
// pEC50: -log10(molar conc.)

Query C[C@]1(C(=O)Nc2cc3cc(C4(CO)COC4)n(C[C@@H](O)CO)c3cc2F)COc2cc3c(cc21)OC(F)(F)O3 yields pEC50 of 5.57

Item: COc1ccc2c(c1)O[C@@H](c1ccc(C(=O)N3CCOCC3)cn1)C[C@H]2NC(=O)[C@@]1(C)COc2cc3c(cc21)OC(F)(F)O3 | pEC50: 8.00

pEC50 in this record for C[C@]1(C(=O)Nc2cc3cc(C4(CO)CCC4)n(C[C@@H](O)CO)c3cc2F)COc2cc3c(cc21)OC(F)(F)O3 : 6.71

Record COc1ccc2c(c1)O[C@@H](c1ccc(C(=O)O)nc1)C[C@H]2NC(=O)[C@@]1(C)COc2cc3c(cc21)OC(F)(F)O3 . Reported pEC50: 6.80
